Target: T1, P26 (human, UniProt P02771 381-609, limits assumed)
T1 construct: also called AFP p26
T1 sequence: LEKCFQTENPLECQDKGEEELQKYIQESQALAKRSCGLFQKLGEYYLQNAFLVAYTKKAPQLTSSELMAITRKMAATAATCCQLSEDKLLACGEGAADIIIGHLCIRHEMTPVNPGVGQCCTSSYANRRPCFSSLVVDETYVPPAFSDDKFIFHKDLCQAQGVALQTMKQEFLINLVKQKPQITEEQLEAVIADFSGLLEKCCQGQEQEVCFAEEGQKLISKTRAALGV
Test: ELISA, format not described
Parameters: unit not given here
Use 20 as the dividing line for ELISA_avg, with the line itself on the MET side and lower values as NOT MET.

Confirm if ELISA_avg reported for the binder D domain SEQ ID NO: 952 (designed binder) MGSWYIFKSELAWIKWYLEALGGSEAELANFEVEIATFETWLQGYKGKGNPEVEALRKEAAAIRDELQAYRHN is 20 or above.
MET

# repeat for D domain SEQ ID NO: 880 (designed binder) MGSWVEFHYRLQAIDARLWALGGSEAELAAFEKEIAAFESELQAYKGKGNPEVEELRVHAAHIRKWLQAYRHN
NOT MET

One more binder: D domain SEQ ID NO: 868 (designed binder) MGSWLEFYHRLNAIDSRLWALGGSEAELAAFEKEIAAFESELQAYKGKGNPEVESLRDHAAHIREWLQAYRHN
NOT MET

Next binder up: D domain SEQ ID NO: 911 (designed binder) MGSWVEFVERLDAIEFRLFALGGSEAELAAFEKEIAAFESELQAYKGKGNPEVEKLRNHAAHIRSWLQAYRHN
MET

Also check D domain SEQ ID NO: 968 (designed binder) MGSWFTFKDDLAQIKNRLEALGGSEAELANFEMSIAWFEFMLQYYKGKGNPEVEALRKEAAAIRDELQAYRHN
MET
